Each recorded value in this set is attributed to patent US20260028352A1.

Quick reference for pIC50 among some compounds
- System: Ba/F3-TPM3-NTRK1-G667C cells
- ASSAY_INFO: Growth inhibition of Ba/F3-TPM3-NTRK1-G667C cells (Cell Titer-Glo)
- Format: cell-based
- SETTINGS: 72 hours, CTG; read-out: inhibitory activity IC50 Ba/F3-TPM3-NTRK1-G667C
pIC50: −log10 of the molar value.

Worked examples, 10 compounds total:
Fc1cnc2c(c1)[C@H]1C[C@H](F)CN1c1ccc3ncc(n3n1)-c1cc(ccn1)CCO2 | 8.03
C[C@H]1Nc2ccc3ncc(n3n2)-c2cc(ccn2)OCc2ccc(F)cc21 | > 7.00
Fc1cnc2c(c1)[C@H]1CCCN1c1ccc3ncc(n3n1)-c1nccc(n1)CCO2 | > 7.00
CC1Nc2ccc3ncc(n3n2)-c2cc(ccn2)COc2ncccc21 (stereo not shown) | > 7.00
C[C@H]1Nc2ccc3ncc(n3n2)-c2cc(cnn2)COc2ccc(F)cc21 | > 7.00
CC1Nc2ccc3ncc(n3n2)-c2cc(ccn2)OCc2ccc(F)cc21 (stereo not shown) | > 7.00
C[C@H]1Nc2ccc3ncc(n3n2)-c2cc(ccn2)N2CCC[C@H](C2)Oc2ccc(F)cc21 | > 7.00
C[C@@H]1Cc2cc(ncn2)-c2cnc3ccc(nn23)N2CCC[C@@H]2c2cc(F)ccc2O1 | > 7.00
Fc1cnc2c(c1)[C@H]1C[C@H](F)CN1c1ccc3ncc(n3n1)-c1cc(ncn1)CCO2 | 8.13
Fc1ccc2c(c1)[C@H]1CCCN1c1ccc3ncc(n3n1)-c1nccc(n1)CCO2 | > 7.00

For Fc1ccc2c(c1)[C@H]1C[C@H](F)CN1c1ccc3ncc(n3n1)-c1nccc(n1)CO2 , what is its reported pIC50?
7.87

For Fc1ccc2c(c1)[C@H]1C[C@H](F)CN1c1ccc3ncc(n3n1)-c1cc(ncn1)CO2 , what is its reported pIC50?
7.90

For C[C@H]1Nc2ccc3ncc(n3n2)-c2cncc(c2)COc2ccc(F)cc21 , what is its reported pIC50?
> 7.00

For C[C@H]1Nc2ccc3ncc(n3n2)-c2cc(ncn2)COc2ncc(F)cc21 , what is its reported pIC50?
> 7.00

For Fc1cnc2c(c1)[C@H]1CCCN1c1ccc3ncc(n3n1)-c1cc(ccn1)CCO2 , what is its reported pIC50?
> 7.00

For Fc1cnc2c(c1)[C@H]1CCCN1c1ccc3ncc(n3n1)-c1cc(cnn1)CO2 , what is its reported pIC50?
> 7.00

###

- System: Ba/F3-TPM3-NTRK1-G667C cells
- ASSAY_INFO: Growth inhibition of Ba/F3-TPM3-NTRK1-G667C cells (Cell Titer-Glo)
- Type: cell-based
- SETTINGS: 72 hours, CTG; read-out: inhibitory activity IC50 Ba/F3-TPM3-NTRK1-G667C
Quick reference for IC50 among some compounds

C[C@@H]1Cc2cc(ncn2)-c2cnc3ccc(nn23)N[C@H](C)c2cc(F)ccc2O1 | < 100 nM
C[C@@H]1Cc2ccnc(c2)-c2cnc3ccc(nn23)N2C[C@@H](F)C[C@@H]2c2cc(F)cnc2O1 | 0.1 nM
CC1Nc2ccc3ncc(n3n2)-c2cc(ccn2)COc2c(F)cc(F)cc21 (centres unmarked) | 32.5 nM
C[C@H]1Nc2ccc3ncc(n3n2)-c2cc(ccn2)COc2ccccc21 | < 100 nM
CC1Nc2ccc3ncc(n3n2)-c2cc(ccn2)COc2ccc(F)cc21 (centres unmarked) | 91.2 nM
C[C@H]1Nc2ccc3ncc(n3n2)-c2cc(ccn2)N2CC[C@@H](C2)Oc2ccc(F)cc21 | < 100 nM
Fc1cnc2c(c1)[C@H]1CCCN1c1ccc3ncc(n3n1)-c1cc(cnn1)CCO2 | < 100 nM
C[C@@H]1Cc2ccnc(c2)-c2cnc3ccc(nn23)N2CCC[C@@H]2c2cc(F)cnc2O1 | < 100 nM

Kindly state the measured IC50 obtained for Fc1cnc2c(c1)[C@H]1CCCN1c1ccc3ncc(n3n1)-c1nccc(n1)CO2 with Ba/F3-TPM3-NTRK1-G667C cells.
< 100 nM

Kindly state the measured IC50 obtained for C[C@H]1Nc2ccc3ncc(n3n2)-c2nccc(n2)COc2ccc(F)cc21 with Ba/F3-TPM3-NTRK1-G667C cells.
< 100 nM

Kindly state the measured IC50 obtained for Fc1ccc2c(c1)[C@H]1CCCN1c1ccc3ncc(n3n1)-c1cc(ccn1)CO2 with Ba/F3-TPM3-NTRK1-G667C cells.
< 100 nM

###

Quick reference for IC50 among some compounds
- System: Ba/F3-TPM3-NTRK1-G667C cells
- ASSAY_INFO: Growth inhibition of Ba/F3-TPM3-NTRK1-G667C cells (Cell Titer-Glo)
- Type: cell-based
- SETTINGS: 72 hours, CTG; read-out: inhibitory activity IC50 Ba/F3-TPM3-NTRK1-G667C
Please reply with the bare figure in µM and do not write the unit itself.

Fc1ccc2c(c1)[C@H]1C[C@H](F)CN1c1ccc3ncc(n3n1)-c1nccc(n1)CCO2 | 0.0139

For Fc1cnc2c(c1)[C@H]1C[C@H](F)CN1c1ccc3ncc(n3n1)-c1cc(ncn1)CO2 , what is its reported IC50?
0.0225
